Molecular target: Peroxisome proliferator-activated receptor gamma (Homo sapiens)
Sequence (P37231 whole entry): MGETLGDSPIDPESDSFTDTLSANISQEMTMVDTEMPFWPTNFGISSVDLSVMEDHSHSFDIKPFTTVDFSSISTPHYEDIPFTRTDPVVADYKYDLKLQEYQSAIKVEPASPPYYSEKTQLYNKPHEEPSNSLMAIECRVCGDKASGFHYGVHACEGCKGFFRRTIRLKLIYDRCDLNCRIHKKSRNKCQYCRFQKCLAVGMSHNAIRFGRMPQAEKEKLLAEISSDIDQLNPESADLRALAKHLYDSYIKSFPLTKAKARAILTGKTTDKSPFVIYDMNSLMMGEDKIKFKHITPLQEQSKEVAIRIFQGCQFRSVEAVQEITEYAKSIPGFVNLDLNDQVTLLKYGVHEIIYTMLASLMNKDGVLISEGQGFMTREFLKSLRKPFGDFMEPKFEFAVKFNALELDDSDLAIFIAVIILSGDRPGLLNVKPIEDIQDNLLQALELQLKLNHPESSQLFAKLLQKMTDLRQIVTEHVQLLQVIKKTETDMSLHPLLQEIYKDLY
Assay: Binding affinity to GST-tagged human PPAR-gamma receptor by FRET assay
Settings: read-out: IC50
Reported pIC50 values for a set of compounds
// pIC50 here means minus log10 of the molar concentration (mol/L)

1) COc1ccc(COCCN(CCOc2ccccn2)c2ccc(C=C3C(=O)NC(=O)NC3=O)cc2)cc1 = 4.08
2) N#Cc1ccc(OCCN(CCOc2ccc(C#N)cc2)c2ccc(C=C3C(=O)NC(=O)NC3=O)cc2)cc1 = 5.19
3) O=C1NC(=O)C(=Cc2ccc(N(CCOc3ccc([N+](=O)[O-])cc3)CCOc3ccc([N+](=O)[O-])cc3)cc2)C(=O)N1 = 5.00
4) O=C1NC(=O)C(=Cc2ccc(N(CCO)CCOC(c3ccccc3)(c3ccccc3)c3ccccc3)cc2)C(=O)N1 = 4.65
5) O=C1NC(=O)C(=Cc2ccc(N(CCOCc3ccccc3)CCOCc3ccccc3)cc2)C(=O)N1 = 4.11
6) COc1ccc(COCCN(CCOCc2ccccc2)c2ccc(C=C3C(=O)NC(=O)NC3=O)cc2)cc1 = 3.72
7) COc1ccc(COCCN(CCOCc2ccc(OC)cc2)c2ccc(C=C3C(=O)NC(=O)NC3=O)cc2)cc1 = 4.23

Now let's try a different one.
Notebook: pull reported pIC50 for Peroxisome proliferator-activated receptor gamma (Homo sapiens), entry `O=C1NC(=O)C(=Cc2ccc(OCc3ccccc3)cc2)C(=O)N1` 7.00
